Target: T1, Factor VIIIa (recombinant FVIII, Kogenate FS, Bayer healthcare, activated with alpha-thrombin) (UniProt P00451 20-2351, limits assumed)
T1 construct: also called FVIIIa; cofactor
T1 sequence (looked up): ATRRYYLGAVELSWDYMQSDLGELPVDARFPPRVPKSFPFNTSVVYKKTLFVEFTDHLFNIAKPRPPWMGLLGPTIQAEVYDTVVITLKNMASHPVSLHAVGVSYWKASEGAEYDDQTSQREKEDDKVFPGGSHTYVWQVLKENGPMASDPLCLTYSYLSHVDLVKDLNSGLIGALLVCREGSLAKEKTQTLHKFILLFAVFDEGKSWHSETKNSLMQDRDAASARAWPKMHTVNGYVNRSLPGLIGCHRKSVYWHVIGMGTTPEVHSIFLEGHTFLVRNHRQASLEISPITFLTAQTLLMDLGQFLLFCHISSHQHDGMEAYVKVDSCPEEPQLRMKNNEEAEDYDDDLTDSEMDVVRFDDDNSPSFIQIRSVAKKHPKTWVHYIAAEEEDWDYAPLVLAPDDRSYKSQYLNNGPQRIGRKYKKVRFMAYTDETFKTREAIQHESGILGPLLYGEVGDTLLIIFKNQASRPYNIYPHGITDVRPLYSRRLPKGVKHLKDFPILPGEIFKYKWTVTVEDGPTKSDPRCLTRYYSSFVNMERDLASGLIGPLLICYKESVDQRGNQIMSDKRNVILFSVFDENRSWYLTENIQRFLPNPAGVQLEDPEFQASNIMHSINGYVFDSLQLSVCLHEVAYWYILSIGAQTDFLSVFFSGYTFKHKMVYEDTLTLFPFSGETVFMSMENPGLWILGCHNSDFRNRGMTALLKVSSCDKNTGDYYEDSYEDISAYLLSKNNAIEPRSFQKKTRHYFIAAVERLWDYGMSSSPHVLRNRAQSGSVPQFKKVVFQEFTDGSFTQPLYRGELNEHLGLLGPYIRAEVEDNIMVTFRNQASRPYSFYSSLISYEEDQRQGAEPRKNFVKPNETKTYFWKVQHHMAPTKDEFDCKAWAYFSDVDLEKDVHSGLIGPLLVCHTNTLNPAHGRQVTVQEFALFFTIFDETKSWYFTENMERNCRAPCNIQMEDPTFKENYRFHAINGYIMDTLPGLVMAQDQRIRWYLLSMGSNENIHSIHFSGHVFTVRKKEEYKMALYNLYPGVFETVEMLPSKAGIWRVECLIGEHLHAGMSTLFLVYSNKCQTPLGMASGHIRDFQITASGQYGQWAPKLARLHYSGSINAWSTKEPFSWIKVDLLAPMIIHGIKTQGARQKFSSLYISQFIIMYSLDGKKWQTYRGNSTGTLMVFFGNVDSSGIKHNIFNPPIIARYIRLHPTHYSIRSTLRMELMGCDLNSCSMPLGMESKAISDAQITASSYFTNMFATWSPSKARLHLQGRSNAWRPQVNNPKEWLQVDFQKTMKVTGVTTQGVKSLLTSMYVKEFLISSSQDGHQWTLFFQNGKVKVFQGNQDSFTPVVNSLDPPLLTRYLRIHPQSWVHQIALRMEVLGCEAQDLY
Test: same assay; KD-app of Catalyst Biosciences WT FIXa divided by KD-app of the variant
Protocol: The molar concentration of FVIII was then determined by absorbance at 280 nm using an extinction coefficient of 1.567 mg⁻¹ mL cm⁻¹ and a molecular weight of 163.6 kDa.
quantity: KD-WT/KD-mut

1. FIXa-R318Y/R338E/T343R/R403E/E410N (enzyme, also called R150Y/R170E/T175R/R233E/E240N (chymotrypsin numbering)) chain 1: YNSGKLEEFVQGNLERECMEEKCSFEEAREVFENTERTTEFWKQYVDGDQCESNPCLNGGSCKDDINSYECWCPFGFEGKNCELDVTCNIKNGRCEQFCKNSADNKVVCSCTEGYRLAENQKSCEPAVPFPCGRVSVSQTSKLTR chain 2: VVGGEDAKPGQFPWQVVLNGKVDAFCGGSIVNEKWIVTAAHCVETGVKITVVAGEHNIEETEHTEQKRNVIRIIPHHNYNAAINKYNHDIALLELDEPLVLNSYVTPICIADKEYTNIFLKFGSGYVSGWGRVFHKGYSALVLQYLRVPLVDRATCLESTKFRIYNNMFCAGFHEGGRDSCQGDSGGPHVTEVEGTSFLTGIISWGEECAMKGKYGIYTKVSEYVNWIKNKTKLT ... 6.6 ratio
2. FIXa-Y155F/K228N/R318Y/R338E/R403E/E410N (enzyme) chain 1: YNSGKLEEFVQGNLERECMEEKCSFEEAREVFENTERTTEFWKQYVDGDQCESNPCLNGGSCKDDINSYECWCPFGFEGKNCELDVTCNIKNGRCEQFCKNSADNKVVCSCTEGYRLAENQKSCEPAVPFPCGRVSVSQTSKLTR chain 2: VVGGEDAKPGQFPWQVVLNGKVDAFCGGSIVNEKWIVTAAHCVETGVNITVVAGEHNIEETEHTEQKRNVIRIIPHHNYNAAINKYNHDIALLELDEPLVLNSYVTPICIADKEYTNIFLKFGSGYVSGWGRVFHKGYSALVLQYLRVPLVDRATCLESTKFTIYNNMFCAGFHEGGRDSCQGDSGGPHVTEVEGTSFLTGIISWGEECAMKGKYGIYTKVSEYVNWIKNKTKLT ... 3.1 ratio
3. FIXa-R318Y/R338E/E410N/T412V (enzyme, also called R150Y/R170E/E240N/T242V (chymotrypsin numbering)) chain 1: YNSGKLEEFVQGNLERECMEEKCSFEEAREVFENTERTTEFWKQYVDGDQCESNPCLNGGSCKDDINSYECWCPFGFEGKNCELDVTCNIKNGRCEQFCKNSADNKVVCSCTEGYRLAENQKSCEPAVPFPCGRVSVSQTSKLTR chain 2: VVGGEDAKPGQFPWQVVLNGKVDAFCGGSIVNEKWIVTAAHCVETGVKITVVAGEHNIEETEHTEQKRNVIRIIPHHNYNAAINKYNHDIALLELDEPLVLNSYVTPICIADKEYTNIFLKFGSGYVSGWGRVFHKGYSALVLQYLRVPLVDRATCLESTKFTIYNNMFCAGFHEGGRDSCQGDSGGPHVTEVEGTSFLTGIISWGEECAMKGKYGIYTKVSRYVNWIKNKVKLT ... 10.7 ratio
